The measurements presented in this section are drawn from PubChem BioAssay (Tox21).

targetEntity: Nuclear receptor subfamily 1 group I member 2 (Homo sapiens) (UniProt O75469)
Sequence (O75469 whole entry, looked up): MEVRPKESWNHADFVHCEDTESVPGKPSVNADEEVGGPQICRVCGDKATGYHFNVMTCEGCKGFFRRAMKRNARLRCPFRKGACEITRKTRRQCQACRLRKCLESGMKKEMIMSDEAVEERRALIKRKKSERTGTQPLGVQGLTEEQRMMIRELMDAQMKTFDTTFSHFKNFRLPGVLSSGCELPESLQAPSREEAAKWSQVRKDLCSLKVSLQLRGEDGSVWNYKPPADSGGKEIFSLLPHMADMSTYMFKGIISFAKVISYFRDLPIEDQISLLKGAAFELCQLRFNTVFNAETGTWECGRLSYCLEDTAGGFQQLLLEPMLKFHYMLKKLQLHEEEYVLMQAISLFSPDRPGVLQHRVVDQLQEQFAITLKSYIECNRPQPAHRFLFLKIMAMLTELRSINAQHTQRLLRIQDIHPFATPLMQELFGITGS
assayText: Human pregnane X receptor (PXR) small molecule agonists, qHTS assay (AID 1346982); also: nearly all actives have a fitted effect of over 35% in size
conditionNotes: PXR-Luc HepG2, CYP3A4 luciferase reporter, 24 h; series mostly up to 92.4 µM
Records with an inconclusive call do not appear. The source made the active and inactive calls. Calls follow the shape of the dose curve; as a rule, active = well fitted activation curve with a large enough effect in the repeat runs; inconclusive = weak or mixed curves; inactive = no such curve, though single readings can be large or run the other way.
Valid outcomes are listed here; reply with one: Y for active, N for inactive

**Q:** State the result this test recorded for O=C(N/N=C/c1ccccc1O)c1ccncc1 .
**A:** N

**Q:** State the result this test recorded for O=C1c2ccccc2Cc2ccccc21 .
**A:** Y

**Q:** State the result this test recorded for Oc1c(Cl)cc(Cl)c2cccnc12 .
**A:** Y
